Ref: ChEMBL document CHEMBL6114978

experiment: Inhibition of His-tagged SARS-CoV 3CLpro using Abz-SVTLQSG-Tyr(NO2)R as substrate by fluorometric assay; set-up: species or system Severe acute respiratory syndrome-related coronavirus
READOUT KIND: IC50

ENTRY SMILES	OBS VALUE
CC(=O)N[C@H](CN[C@H](C(=O)N[C@@H](CC(C)C)C(=O)N[C@@H](C[C@@H]1CCNC1=O)C(=O)Cn1[nH]c(=O)c2c([N+](=O)[O-])cccc2c1=O)[C@@H](C)OCc1ccccc1)C(C)C	600 nM
